Type: physicochemical
Details: salt screen, Experiment 2
Experimental: Tabernanthalog (native) (50 mg, 1 wt) was charged to a solution of the relevant counter ion (1.0 mol equivalence of counter ion) in ethanol (5.0 vol, 250 μl). The mixtures were warmed to 85° C. and small aliquots of water were added until dissolution occurred (Table 212 for additional charges of solvent). […] The corresponding pellets were sub-sampled and analyzed wet by XRPD; after which, they were dried at 40° C. under reduced pressure over 20 h and reanalyzed by XRPD. […]
EXPERIMENTAL_ENDPOINT: Unique XRPD?

[[record]]
compound = "COc1ccc2c3c([nH]c2c1)CCN(C)CC3.O=C(O)CCCCC(=O)O [Tabernanthalog · Adipate]"
experimental_endpoint = "Unique XRPD?"
reading = "✓"

[[record]]
compound = "COc1ccc2c3c([nH]c2c1)CCN(C)CC3.Cc1ccc(S(=O)(=O)O)cc1 [Tabernanthalog · Tosylate]"
experimental_endpoint = "Unique XRPD?"
reading = "✓"


----------
assay: Suspension equilibration of sorbate salt at 20 and 40° C. (Example 10, Experiments 3, 4, 9); assay type: physicochemical; settings: sorbate salt Form A, ca. 50 mg in 5 vol solvent, one solvent per sample; 20° C.; t = 0
EXPERIMENTAL_ENDPOINT: Observations (t = 0 @ 20° C.)

[[record]]
compound = "CC=CC=CC(=O)O.COc1ccc2c3c([nH]c2c1)CCN(C)CC3 [Experiment 3-Sample M]"
experimental_endpoint = "Observations (t = 0 @ 20° C.)"
reading = "Suspension"

[[record]]
compound = "CC=CC=CC(=O)O.COc1ccc2c3c([nH]c2c1)CCN(C)CC3 [Experiment 3-Sample F]"
experimental_endpoint = "Observations (t = 0 @ 20° C.)"
reading = "Suspension"

[[record]]
compound = "CC=CC=CC(=O)O.COc1ccc2c3c([nH]c2c1)CCN(C)CC3 [Experiment 3-Sample O]"
experimental_endpoint = "Observations (t = 0 @ 20° C.)"
reading = "Suspension"

[[record]]
compound = "CC=CC=CC(=O)O.COc1ccc2c3c([nH]c2c1)CCN(C)CC3 [Experiment 3-Sample B]"
experimental_endpoint = "Observations (t = 0 @ 20° C.)"
reading = "Suspension"

[[record]]
compound = "CC=CC=CC(=O)O.COc1ccc2c3c([nH]c2c1)CCN(C)CC3 [Experiment 3-Sample S]"
experimental_endpoint = "Observations (t = 0 @ 20° C.)"
reading = "Solution"

[[record]]
compound = "CC=CC=CC(=O)O.COc1ccc2c3c([nH]c2c1)CCN(C)CC3 [Experiment 3-Sample T]"
experimental_endpoint = "Observations (t = 0 @ 20° C.)"
reading = "Solution"

[[record]]
compound = "CC=CC=CC(=O)O.COc1ccc2c3c([nH]c2c1)CCN(C)CC3 [Experiment 3-Sample N]"
experimental_endpoint = "Observations (t = 0 @ 20° C.)"
reading = "Suspension"

[[record]]
compound = "C/C=C/C=C/C(=O)O.COc1ccc2c3c([nH]c2c1)CCN(C)CC3 [Experiment 3-Sample C]"
experimental_endpoint = "Observations (t = 0 @ 20° C.)"
reading = "Suspension"

[[record]]
compound = "CC=CC=CC(=O)O.COc1ccc2c3c([nH]c2c1)CCN(C)CC3 [Experiment 3-Sample R]"
experimental_endpoint = "Observations (t = 0 @ 20° C.)"
reading = "Suspension"

[[record]]
compound = "CC=CC=CC(=O)O.COc1ccc2c3c([nH]c2c1)CCN(C)CC3 [Experiment 3-Sample L]"
experimental_endpoint = "Observations (t = 0 @ 20° C.)"
reading = "Suspension"


----------
assay: Examination of variability of fusion temperature of sorbate Form A (DSC); format: physicochemical; settings: DSC 25 to 220C at 10° C. min−1; tabernanthalog sorbate Form A samples
EXPERIMENTAL_ENDPOINT: melt enthalpy (Jg-1)

[[record]]
molecule = "C/C=C/C=C/C(=O)O.COc1ccc2c3c([nH]c2c1)CCN(C)CC3 [Experiment 6-Sample D1]"
experimental_endpoint = "melt enthalpy"
reading = "−166.35"

[[record]]
molecule = "C/C=C/C=C/C(=O)O.COc1ccc2c3c([nH]c2c1)CCN(C)CC3 [Experiment 6-Sample E1]"
experimental_endpoint = "melt enthalpy"
reading = "−105.68"

[[record]]
molecule = "C/C=C/C=C/C(=O)O.COc1ccc2c3c([nH]c2c1)CCN(C)CC3 [Experiment 7-Sample A neat]"
experimental_endpoint = "melt enthalpy"
reading = "−122.47"

[[record]]
molecule = "C/C=C/C=C/C(=O)O.COc1ccc2c3c([nH]c2c1)CCN(C)CC3 [Experiment 6-Sample C1]"
experimental_endpoint = "melt enthalpy"
reading = "−100.48"

[[record]]
molecule = "C/C=C/C=C/C(=O)O.COc1ccc2c3c([nH]c2c1)CCN(C)CC3 [Pattern A1270-20-V2]"
experimental_endpoint = "melt enthalpy"
reading = "−84.09"


----------
test: Qualitative solubility screen of Tabernanthalog sorbate salt (Example 10, Experiment 2); assay type: physicochemical; conditions: Tabernanthalog sorbate salt (input Form A); same pellets dried under reduced pressure; one solvent per sample
EXPERIMENTAL_ENDPOINT: Assignment (dry pellet XRPD)

[[record]]
compound = "COc1ccc2c3c([nH]c2c1)CCN(C)CC3 [Experiment 2-Sample D1]"
experimental_endpoint = "Assignment (dry pellet XRPD)"
reading = "Form A"

[[record]]
compound = "COc1ccc2c3c([nH]c2c1)CCN(C)CC3.O=C(O)/C=C/C(=O)O"
experimental_endpoint = "Assignment (dry pellet XRPD)"
reading = "Form A"

[[record]]
compound = "CC=CC=CC(=O)O.COc1ccc2c3c([nH]c2c1)CCN(C)CC3 [Experiment 2-Sample O1]"
experimental_endpoint = "Assignment (dry pellet XRPD)"
reading = "Form A"


----------
experiment: Thermocycling of the monofumarate salt (Experiment Reference 9); type: physicochemical; settings: form (pattern) of wet pellet after thermocycling
EXPERIMENTAL_ENDPOINT: XRPD (moist pellet)

[[record]]
compound = "COc1ccc2c3c([nH]c2c1)CCN(C)CC3.O=C(O)/C=C/C(=O)O [Pattern 9-F]"
experimental_endpoint = "XRPD (moist pellet)"
reading = "Pattern #2c"

[[record]]
compound = "COc1ccc2c3c([nH]c2c1)CCN(C)CC3.O=C(O)/C=C/C(=O)O [Pattern 9-E]"
experimental_endpoint = "XRPD (moist pellet)"
reading = "Pattern #2c"

[[record]]
compound = "COc1ccc2c3c([nH]c2c1)CCN(C)CC3.O=C(O)/C=C/C(=O)O [Pattern 9-G]"
experimental_endpoint = "XRPD (moist pellet)"
reading = "Pattern #2c"


----------
solubility at 24 h values, listed per item
experiment: Solubility determinations in SIF buffers FaSSIF, FeSSIF, FaSSGF (Example 8, Experiment 5); conditions: 37 °C, pH 1.6, fassgf or other biorelevant, thermodynamic from solid
EXPERIMENTAL_ENDPOINT: solubility at 24 h (mg/mL)

[[record]]
molecule = "COc1ccc2c3c([nH]c2c1)CCN(C)CC3.O=C(O)/C=C/C(=O)O"
bound_sign = ">"
reading = 30

[[record]]
molecule = "COc1ccc2c3c([nH]c2c1)CCN(C)CC3 [Tabernanthalog• Sorbate]"
bound_sign = "="
reading = 29.9


----------
format: physicochemical; conditions: salt screen, Experiment 2
EXPERIMENTAL_ENDPOINT: Unique XRPD?

[[record]]
compound = "COc1ccc2c3c([nH]c2c1)CCN(C)CC3.O=C(O)C=CC(=O)O [Tabernanthalog · Maleate]"
experimental_endpoint = "Unique XRPD?"
reading = "Disordered"

[[record]]
compound = "COc1ccc2c3c([nH]c2c1)CCN(C)CC3.O=C[C@H](O)[C@@H](O)[C@H](O)[C@H](O)C(=O)O [Tabernanthalog · Glucuronate]"
experimental_endpoint = "Unique XRPD?"
reading = "✓"

[[record]]
compound = "COc1ccc2c3c([nH]c2c1)CCN(C)CC3.O=P(O)(O)O [Tabernanthalog · Phosphate]"
experimental_endpoint = "Unique XRPD?"
reading = "Disordered"

[[record]]
compound = "COc1ccc2c3c([nH]c2c1)CCN(C)CC3.O=C(O)C[C@H](O)C(=O)O [Tabernanthalog · Malate]"
experimental_endpoint = "Unique XRPD?"
reading = "✓"

[[record]]
compound = "COc1ccc2c3c([nH]c2c1)CCN(C)CC3.O=C(O)c1ccccc1 [Tabernanthalog · Benzoate]"
experimental_endpoint = "Unique XRPD?"
reading = "✓"

[[record]]
compound = "COc1ccc2c3c([nH]c2c1)CCN(C)CC3 [Tabernanthalog · Sorbate]"
experimental_endpoint = "Unique XRPD?"
reading = "✓"


----------
experiment: Suspension equilibration of sorbate salt at 20 and 40° C. (Example 10, Experiments 3, 4, 9); assay type: physicochemical; conditions: suspension equilibration at 20° C.; moist pellet after 6 d; one solvent per sample
EXPERIMENTAL_ENDPOINT: XRPD (IPC, 6 d, wet)

[[record]]
compound = "CC=CC=CC(=O)O.COc1ccc2c3c([nH]c2c1)CCN(C)CC3 [Experiment 3-Sample B]"
reading = "Form A"

[[record]]
compound = "CC=CC=CC(=O)O.COc1ccc2c3c([nH]c2c1)CCN(C)CC3 [Experiment 3-Sample M]"
reading = "Form A"

[[record]]
compound = "CC=CC=CC(=O)O.COc1ccc2c3c([nH]c2c1)CCN(C)CC3 [Experiment 3-Sample N]"
reading = "Form A"

